Molecular target: T1, interleukin 18 binding protein (IL-18BP) (UniProt O95998 31-194); also: unit not given here
T1 sequence (looked up): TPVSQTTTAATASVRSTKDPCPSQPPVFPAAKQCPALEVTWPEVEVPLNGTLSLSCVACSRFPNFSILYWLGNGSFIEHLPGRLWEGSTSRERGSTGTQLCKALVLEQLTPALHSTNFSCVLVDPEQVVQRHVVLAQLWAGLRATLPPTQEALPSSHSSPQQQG
Test: cell-based or functional assay
# HEK-Blue activity, +100 nM BP, DF-10000 listing for each entry below
Enter the number alone.

IL-18 variant T34S, S36L, D37E, D40Y, N41M, K53T, S55K, P107K, H109Q (ligand) YFGKLESKLSVIRNLNDQVLFIDQGNRPLFEDMSDLEMRYMAPRTIFIISMYTDKQPRGMAVTISVKSEKISTLSSENKIISFKEMNPPDNIKDTKSDIIFFQRSVKGQDNKMQFESSSYEGYFLASEKERDLFKLILKKEDELGDRSIMFTVQNED : 0.1
IL-18 variant K53H, S55G (ligand) YFGKLESKLSVIRNLNDQVLFIDQGNRPLFEDMTDSDMRDNAPRTIFIISMYHDGQPRGMAVTISVKSEKISTLSSENKIISFKEMNPPDNIKDTKSDIIFFQRSVPGHDNKMQFESSSYEGYFLASEKERDLFKLILKKEDELGDRSIMFTVQNED : 0.12

Please examine the following record next.
Sure, the documented HEK-Blue activity, +100 nM BP, DF-10000 for IL-18 variant K53H, S55M (ligand) YFGKLESKLSVIRNLNDQVLFIDQGNRPLFEDMTDSDMRDNAPRTIFIISMYHDMQPRGMAVTISVKSEKISTLSSENKIISFKEMNPPDNIKDTKSDIIFFQRSVPGHDNKMQFESSSYEGYFLASEKERDLFKLILKKEDELGDRSIMFTVQNED is 0.12

# credit: patent US20240182536A1
